Target: UniProt:P11712
Sequence (P11712 whole entry): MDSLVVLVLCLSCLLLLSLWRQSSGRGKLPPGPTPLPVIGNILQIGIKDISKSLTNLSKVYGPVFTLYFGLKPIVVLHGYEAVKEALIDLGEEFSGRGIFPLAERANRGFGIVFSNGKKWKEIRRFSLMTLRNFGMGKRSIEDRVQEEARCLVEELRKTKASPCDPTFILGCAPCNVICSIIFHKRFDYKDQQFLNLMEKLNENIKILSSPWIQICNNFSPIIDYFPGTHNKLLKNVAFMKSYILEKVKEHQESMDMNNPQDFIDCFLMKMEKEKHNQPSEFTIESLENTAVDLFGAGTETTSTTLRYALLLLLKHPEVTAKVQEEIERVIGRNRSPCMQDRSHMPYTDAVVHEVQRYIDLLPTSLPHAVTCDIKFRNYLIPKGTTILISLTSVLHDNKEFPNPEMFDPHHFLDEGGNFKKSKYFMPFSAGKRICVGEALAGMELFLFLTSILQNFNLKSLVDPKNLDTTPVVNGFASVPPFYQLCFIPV
Test: Inhibition of CYP2C9 conversion of dibenzylfluorescein to fluorescein
Type: in vitro ADME
Method: Inhibition of CYP2C9 and CYP3A4 These assays were carried out as described using CYP2C9 and CYP3A4 conversion of dibenzylfluorescein (DBF) to fluorescein (F).
pIC50: −log10 of the molar value.
Measured Metric: pIC50

Input CN(C(=O)Cc1ccc(CNS(C)(=O)=O)cc1)[C@H](CN1CCCC1)c1ccccc1 . Output pIC50: < 5.00

----------
Molecular target: cloned human δ opioid receptor (Homo sapiens)
Construct: expressed in transfected cells
Sequence (P41143 whole entry): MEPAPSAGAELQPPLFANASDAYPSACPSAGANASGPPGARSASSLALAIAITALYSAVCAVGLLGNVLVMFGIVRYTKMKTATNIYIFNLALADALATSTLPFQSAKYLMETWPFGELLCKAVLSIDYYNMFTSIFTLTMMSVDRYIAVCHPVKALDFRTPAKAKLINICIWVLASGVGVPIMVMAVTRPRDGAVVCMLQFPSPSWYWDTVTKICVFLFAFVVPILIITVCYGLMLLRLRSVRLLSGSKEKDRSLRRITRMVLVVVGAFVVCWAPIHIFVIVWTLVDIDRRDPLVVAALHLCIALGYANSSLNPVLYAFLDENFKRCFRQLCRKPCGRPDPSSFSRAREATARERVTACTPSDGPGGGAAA
Assay: [3H]diprenorphine binding to cloned human δ opioid receptor
Structures can show the parent of a compound that is named as a salt.
Measured Metric: Ki (nM)
Give the quantity in nM, number only.

Input CN(C(=O)Cc1ccc(CN(C)S(C)(=O)=O)cc1)[C@H](CN1CC[C@H](O)C1)c1ccccc1.Cl [Example 24, hydrochloride] . Output Ki: 540

Input CCCS(=O)(=O)NCc1ccc(CC(=O)N(C)[C@H](CN2CC[C@H](O)C2)c2ccccc2)cc1.Cl [Example 16, hydrochloride] . Output Ki: 100

Input Cc1noc(C)c1S(=O)(=O)NCc1ccc(CC(=O)N(C)[C@H](CN2CC[C@H](O)C2)c2ccccc2)cc1 [Example 23, hydrochloride] . Output Ki: 320

Input CN(C(=O)Cc1ccc(CNS(C)(=O)=O)cc1)[C@H](CN1CC[C@H](O)C1)c1ccccc1 [Example 13, hydrochloride] . Output Ki: 190

Input CN(C(=O)Cc1ccc(NS(C)(=O)=O)cc1)[C@H](CN1CC[C@H](O)C1)c1ccccc1 [Example 25, hydrochloride] . Output Ki: 180

Input CN(C(=O)Cc1ccc(CCNS(C)(=O)=O)cc1)[C@H](CN1CC[C@H](O)C1)c1ccccc1.Cl [Example 26, hydrochloride] . Output Ki: 110

----------
Target: CYP2D6 (Homo sapiens)
Construct: purchased BD Biosciences
Test: Inhibition of CYP2D6 catalyzed conversion of MAMC to HAMC
Assay type: in vitro ADME
Conditions: MAMC to HAMC conversion; read-out: IC50(CYP2D6)
Structures can show the parent of a compound that is named as a salt.
For each of the molecules below, state its IC50.
Give the quantity in µM, number only.

Input CN(C(=O)Cc1ccc(CNS(=O)(=O)c2cccs2)cc1)[C@H](CN1CC[C@H](O)C1)c1ccccc1 [Example 22, hydrochloride] . Output IC50: 5.8

Input CN(C(=O)Cc1ccc(CNS(C)(=O)=O)cc1)[C@H](CN1CC[C@H](O)C1)c1ccccc1 [Example 13, hydrochloride] . Output IC50: 9.3

Input CN(C(=O)Cc1ccc(CNS(=O)(=O)c2ccc(F)cc2)cc1)[C@H](CN1CC[C@H](O)C1)c1ccccc1 [Example 19, hydrochloride] . Output IC50: 6.3

Input CN(C(=O)Cc1cccc(CNS(C)(=O)=O)c1)[C@H](CN1CCCC1)c1ccccc1 [Example 11, hydrochloride] . Output IC50: 1.4

----------
Biological target: CYP3A4 (Homo sapiens, UniProt P08684)
Sequence (P08684 whole entry): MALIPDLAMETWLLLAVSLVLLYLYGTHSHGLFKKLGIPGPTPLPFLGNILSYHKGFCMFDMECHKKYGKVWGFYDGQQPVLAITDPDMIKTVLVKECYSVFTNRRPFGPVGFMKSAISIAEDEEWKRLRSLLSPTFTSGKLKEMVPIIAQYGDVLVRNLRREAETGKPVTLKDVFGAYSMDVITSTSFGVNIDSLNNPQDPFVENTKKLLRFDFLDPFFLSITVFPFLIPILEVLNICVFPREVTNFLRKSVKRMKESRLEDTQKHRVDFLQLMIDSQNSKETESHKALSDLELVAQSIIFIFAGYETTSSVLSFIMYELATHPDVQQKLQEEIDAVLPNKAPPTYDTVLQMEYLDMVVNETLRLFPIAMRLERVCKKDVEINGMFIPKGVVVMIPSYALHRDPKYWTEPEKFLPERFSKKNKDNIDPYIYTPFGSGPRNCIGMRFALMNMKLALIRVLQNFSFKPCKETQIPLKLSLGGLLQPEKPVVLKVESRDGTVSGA
Experiment: Inhibition of CYP3A4 conversion of dibenzylfluorescein to fluorescein
Format: in vitro ADME
Conditions: DBF to fluorescein conversion; read-out: IC50(CYP3A4)
Counter-ions that a name gives are not always drawn.
Measured Metric: IC50

Input CC(C)[C@@H](CN1CC[C@H](O)C1)N(C)C(=O)Cc1ccc(CNS(C)(=O)=O)cc1.O=C(O)C(F)(F)F [Example 28, trifluoroacetate] . Output IC50: > 10 µM

Input CN(C(=O)Cc1ccc(CNS(=O)(=O)c2cccs2)cc1)[C@H](CN1CC[C@H](O)C1)c1ccccc1 [Example 22, hydrochloride] . Output IC50: 4.4 µM

Input CCCS(=O)(=O)NCc1ccc(CC(=O)N(C)[C@H](CN2CC[C@H](O)C2)c2ccccc2)cc1.Cl [Example 16, hydrochloride] . Output IC50: > 10 µM

Input CN(C(=O)Cc1ccc(CCCNS(C)(=O)=O)cc1)[C@H](CN1CC[C@H](O)C1)c1ccccc1.Cl [Example 27, hydrochloride] . Output IC50: > 10 µM

Input CN(C(=O)Cc1ccc(CNS(=O)(=O)Cc2ccccc2)cc1)[C@H](CN1CC[C@H](O)C1)c1ccccc1 [Example 21, hydrochloride] . Output IC50: 5.6 µM

Input CS(=O)(=O)NCc1ccc(CC(=O)N2CCCC[C@H]2CN2CC[C@H](O)C2)cc1.O=C(O)C(F)(F)F [Example 29, trifluoroacetate] . Output IC50: > 10 µM

----------
Target: CYP3A4 (Homo sapiens, UniProt P08684)
Assay: Inhibition of CYP3A4 conversion of dibenzylfluorescein to fluorescein
Assay type: in vitro ADME
Details: DBF to fluorescein conversion; read-out: IC50(CYP3A4)
pIC50: −log10 of the molar value. Structures can show the parent of a compound that is named as a salt.
Measured Metric: pIC50

Input Cc1noc(C)c1S(=O)(=O)NCc1ccc(CC(=O)N(C)[C@H](CN2CC[C@H](O)C2)c2ccccc2)cc1 [Example 23, hydrochloride] . Output pIC50: 5.37

Input CN(C(=O)Cc1ccc(NS(C)(=O)=O)cc1)[C@H](CN1CC[C@H](O)C1)c1ccccc1 [Example 25, hydrochloride] . Output pIC50: < 5.00

Input CCCCS(=O)(=O)NCc1ccc(CC(=O)N(C)[C@H](CN2CC[C@H](O)C2)c2ccccc2)cc1 [Example 17, hydrochloride] . Output pIC50: 5.15

Input CCS(=O)(=O)NCc1ccc(CC(=O)N(C)[C@H](CN2CC[C@H](O)C2)c2ccccc2)cc1.Cl [Example 14, hydrochloride] . Output pIC50: < 5.00

Input CN(C(=O)Cc1ccc(CNS(=O)(=O)c2ccccc2)cc1)[C@H](CN1CC[C@H](O)C1)c1ccccc1 [Example 18, hydrochloride] . Output pIC50: 5.37

Input Cc1ccc(S(=O)(=O)NCc2ccc(CC(=O)N(C)[C@H](CN3CC[C@H](O)C3)c3ccccc3)cc2)cc1 [Example 20, hydrochloride] . Output pIC50: < 5.00

Input CC(C)S(=O)(=O)NCc1ccc(CC(=O)N(C)[C@H](CN2CC[C@H](O)C2)c2ccccc2)cc1.Cl [Example 15, hydrochloride] . Output pIC50: < 5.00

Input CN(C(=O)Cc1ccc(CNS(=O)(=O)c2ccc(F)cc2)cc1)[C@H](CN1CC[C@H](O)C1)c1ccccc1 [Example 19, hydrochloride] . Output pIC50: 5.54

Input CN(C(=O)Cc1ccc(CCNS(C)(=O)=O)cc1)[C@H](CN1CC[C@H](O)C1)c1ccccc1.Cl [Example 26, hydrochloride] . Output pIC50: < 5.00

Input CN(C(=O)Cc1cccc(CNS(C)(=O)=O)c1)[C@H](CN1CCCC1)c1ccccc1 [Example 11, hydrochloride] . Output pIC50: < 5.00

Input CN(C(=O)Cc1ccc(CN(C)S(C)(=O)=O)cc1)[C@H](CN1CC[C@H](O)C1)c1ccccc1.Cl [Example 24, hydrochloride] . Output pIC50: < 5.00

Input CN(C(=O)Cc1ccc(CNS(C)(=O)=O)cc1)[C@H](CN1CC[C@H](O)C1)c1ccccc1 [Example 13, hydrochloride] . Output pIC50: < 5.00

----------
Biological target: CYP2D6 (Homo sapiens)
Construct: purchased BD Biosciences
Experiment: Inhibition of CYP2D6 catalyzed conversion of MAMC to HAMC
Assay type: in vitro ADME
Measured Metric: pIC50
pIC50 is a log-scale quantity: -log10 of the concentration expressed in molar.

pIC50 for CYP2D6 (Homo sapiens) with input CN(C(=O)Cc1ccc(CNS(C)(=O)=O)cc1)[C@H](CN1CCCC1)c1ccccc1 [Example 12] equals 4.92

----------
Target: CYP2D6 (Homo sapiens, UniProt P10635)
Construct: purchased BD Biosciences
Sequence (P10635 whole entry): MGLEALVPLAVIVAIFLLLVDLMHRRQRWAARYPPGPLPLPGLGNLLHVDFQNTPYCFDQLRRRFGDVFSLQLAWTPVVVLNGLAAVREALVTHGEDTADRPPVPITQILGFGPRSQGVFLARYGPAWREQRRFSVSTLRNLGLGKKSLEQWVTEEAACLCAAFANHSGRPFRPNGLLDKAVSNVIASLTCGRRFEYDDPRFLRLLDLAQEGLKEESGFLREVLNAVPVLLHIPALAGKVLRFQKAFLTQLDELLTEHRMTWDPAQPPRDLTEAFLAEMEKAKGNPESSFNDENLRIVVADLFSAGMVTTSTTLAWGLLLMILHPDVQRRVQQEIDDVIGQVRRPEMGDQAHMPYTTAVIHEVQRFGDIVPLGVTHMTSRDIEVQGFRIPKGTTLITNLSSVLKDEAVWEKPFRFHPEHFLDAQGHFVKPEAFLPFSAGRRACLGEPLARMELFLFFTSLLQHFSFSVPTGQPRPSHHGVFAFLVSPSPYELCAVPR
Experiment: Inhibition of CYP2D6 catalyzed conversion of MAMC to HAMC
Type: in vitro ADME
Settings: MAMC to HAMC conversion; read-out: IC50(CYP2D6)
Where a name gives a salt, the structure may show the parent alone.
Measured Metric: IC50 (µM)
Give the quantity in µM, number only.

IC50 for CYP2D6 (Homo sapiens, UniProt P10635) with input CN(C(=O)Cc1ccc(NS(C)(=O)=O)cc1)[C@H](CN1CC[C@H](O)C1)c1ccccc1 [Example 25, hydrochloride] equals 4.9

IC50 for CYP2D6 (Homo sapiens, UniProt P10635) with input CN(C(=O)Cc1ccc(CNS(=O)(=O)Cc2ccccc2)cc1)[C@H](CN1CC[C@H](O)C1)c1ccccc1 [Example 21, hydrochloride] equals 5.3
